Reported values of EC50 for individual entries
- System: Human immunodeficiency virus 1
- PROTOCOL_SUMMARY: Antiviral activity against non-nucleoside reverse transcriptase inhibitor-resistant HIV1 bearing reverse transcriptase A17 (K103N, Y181C) mutation infected in human MT4 cells assessed as protection from virus-induced cytopathogenicity after 4 days by MTT assay
- Format: functional, organism-based
- CONDITION_PARAMETERS: Human immunodeficiency virus 1, MT4, 96 h
MEASURE: EC50 (nM)

molecule="Cc1cn([C@H]2C[C@H](N=[N+]=[N-])[C@@H](COP(=O)(Oc3ccccc3)Oc3cccnc3)O2)c(=O)[nH]c1=O (stereo not given in full)" test_result=20
molecule="Nc1ncnc2c1ncn2[C@H]1CC[C@@H](COP(=O)(Oc2ccccc2)Oc2cccnc2)O1 (stereo not given in full)" test_result=7000
molecule=Cc1ccc(OP(=O)(OC[C@H]2O[C@@H](n3cc(C)c(=O)[nH]c3=O)C[C@@H]2N=[N+]=[N-])Oc2ccc(C)nc2)cn1 test_result=10
molecule="Cc1cn([C@H]2C[C@H](N=[N+]=[N-])[C@@H](COP(=O)(Oc3ccc(Cl)cc3)Oc3cccnc3)O2)c(=O)[nH]c1=O (stereo not given in full)" test_result=10
molecule="Cc1cn([C@H]2C[C@H](N=[N+]=[N-])[C@@H](COP(=O)(Oc3ccccc3)Oc3cccnc3Cl)O2)c(=O)[nH]c1=O (stereo not given in full)" test_result=10
molecule="Cc1cn([C@H]2C[C@H](N=[N+]=[N-])[C@@H](COP(=O)(Oc3cccnc3)Oc3ccc(Cl)cc3Cl)O2)c(=O)[nH]c1=O (stereo not given in full)" test_result=8
molecule="Cc1ncccc1OP(=O)(OC[C@H]1O[C@@H](n2cc(C)c(=O)[nH]c2=O)C[C@@H]1N=[N+]=[N-])Oc1ccccc1 (stereo not given in full)" test_result=60
molecule=Cc1cn([C@H]2C[C@H](N=[N+]=[N-])[C@@H](COP(=O)(Oc3cccnc3)Oc3cccnc3)O2)c(=O)[nH]c1=O test_result=3
molecule="Cc1cn([C@H]2C[C@H](N=[N+]=[N-])[C@@H](COP(=O)(Oc3ccncc3)Oc3cccnc3)O2)c(=O)[nH]c1=O (stereo not given in full)" test_result=7
molecule="O=c1ccn([C@H]2CC[C@@H](COP(=O)(Oc3ccccc3)Oc3cccnc3)O2)c(=O)[nH]1 (stereo not given in full)" test_result=11000
molecule="Cc1cn([C@H]2C[C@H](N=[N+]=[N-])[C@@H](COP(=O)(Oc3ccc(C#N)cc3)Oc3cccnc3)O2)c(=O)[nH]c1=O (stereo not given in full)" test_result=9
molecule=Cc1cn([C@H]2C[C@H](N=[N+]=[N-])[C@@H](CO)O2)c(=O)[nH]c1=O test_result=10
molecule="Cc1cn([C@H]2C[C@H](N=[N+]=[N-])[C@@H](COP(=O)(Oc3ccccc3)Oc3cncc(Cl)c3)O2)c(=O)[nH]c1=O (stereo not given in full)" test_result=10
molecule="Cc1cn([C@H]2C[C@H](N=[N+]=[N-])[C@@H](COP(=O)(Oc3ccccc3)Oc3ccncc3)O2)c(=O)[nH]c1=O (stereo not given in full)" test_result=8
molecule="Cc1cn([C@H]2C[C@H](N=[N+]=[N-])[C@@H](COP(=O)(Oc3ccc(Br)cc3)Oc3cccnc3)O2)c(=O)[nH]c1=O (stereo not given in full)" test_result=10
